# subject.of.test: LYP (Homo sapiens)
# Sequence (Q9Y2R2 whole entry): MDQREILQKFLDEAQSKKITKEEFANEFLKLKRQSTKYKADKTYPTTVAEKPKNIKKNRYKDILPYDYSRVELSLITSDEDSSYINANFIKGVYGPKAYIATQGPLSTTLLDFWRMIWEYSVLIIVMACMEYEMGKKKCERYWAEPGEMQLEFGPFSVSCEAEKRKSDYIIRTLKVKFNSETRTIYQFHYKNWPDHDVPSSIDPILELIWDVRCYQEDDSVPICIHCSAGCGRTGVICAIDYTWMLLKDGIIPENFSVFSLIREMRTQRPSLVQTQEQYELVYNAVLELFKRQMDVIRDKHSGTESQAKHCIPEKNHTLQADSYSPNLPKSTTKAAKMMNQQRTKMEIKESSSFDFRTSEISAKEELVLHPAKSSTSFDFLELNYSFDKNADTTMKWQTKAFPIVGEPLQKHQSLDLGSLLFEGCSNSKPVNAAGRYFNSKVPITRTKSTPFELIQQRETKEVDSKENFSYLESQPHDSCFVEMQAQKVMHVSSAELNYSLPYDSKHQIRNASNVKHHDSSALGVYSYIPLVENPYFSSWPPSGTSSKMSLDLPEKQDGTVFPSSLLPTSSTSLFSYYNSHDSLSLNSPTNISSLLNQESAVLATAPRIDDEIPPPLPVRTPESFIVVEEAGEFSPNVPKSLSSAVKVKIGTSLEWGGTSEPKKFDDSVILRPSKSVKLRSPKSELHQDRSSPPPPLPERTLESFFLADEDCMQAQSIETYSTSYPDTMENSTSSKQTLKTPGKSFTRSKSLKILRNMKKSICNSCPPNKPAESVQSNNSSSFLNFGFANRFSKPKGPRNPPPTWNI
# measurement.protocol: PTP inhibition assay (pNPP)
# Format: biochemical
# protocol.conditions: […]; LYP
// IC50 lookup, one value per entry
assay.endpoint: IC50 (µM)

[[record]]
molecule = "O=C(O)C(c1ccc(-c2ccccc2)cc1)S(=O)(=O)O (stereo not shown)"
assay_endpoint = "IC50"
comparison_symbol = "="
recorded_value = 5.19

[[record]]
molecule = "O=C(Nc1nc2cc(Cl)ccc2o1)C(c1ccc(-c2ccccc2)cc1)S(=O)(=O)O (stereo not shown)"
assay_endpoint = "IC50"
comparison_symbol = "="
recorded_value = 15

[[record]]
molecule = "O=C(Nc1ccc(Br)c2ccccc12)C(c1ccc(-c2ccccc2)cc1)S(=O)(=O)O (stereo not shown)"
assay_endpoint = "IC50"
comparison_symbol = "="
recorded_value = 22

[[record]]
molecule = "O=C(Nc1ccc(N2CCOCC2)cc1)C(c1ccccc1F)S(=O)(=O)O (stereo not shown)"
assay_endpoint = "IC50"
comparison_symbol = ">"
recorded_value = 100

